# MEASUREMENT_TARGET: S1P1/EDG1 (Homo sapiens, UniProt P21453)
# Sequence (P21453 whole entry): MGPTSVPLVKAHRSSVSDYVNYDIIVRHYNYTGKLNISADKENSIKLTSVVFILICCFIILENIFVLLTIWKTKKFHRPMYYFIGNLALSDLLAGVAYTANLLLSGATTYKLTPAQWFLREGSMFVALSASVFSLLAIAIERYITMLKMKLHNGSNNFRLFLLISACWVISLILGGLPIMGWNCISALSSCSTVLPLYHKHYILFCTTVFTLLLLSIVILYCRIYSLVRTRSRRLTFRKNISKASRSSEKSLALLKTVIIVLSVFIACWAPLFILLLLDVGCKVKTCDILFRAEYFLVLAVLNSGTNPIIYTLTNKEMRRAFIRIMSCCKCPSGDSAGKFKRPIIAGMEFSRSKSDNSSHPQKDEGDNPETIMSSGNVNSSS
# EXPERIMENT: S1P1 CRE-bla CHOK1 reporter assay, inhibition of Forskolin induced cAMP
# Format: cell-based
# RUN_PARAMETERS: agonist activity range, S1P1 CRE-bla CHOK1, 2 μM Forskolin; read-out: S1P1 ACTIVITY
# Excerpt: Generation of S1P1-Mediated Inhibition of cAMP Reporter Assay A mammalian expression plasmid containing S1P1/EDG1 cloned into pcDNA3.1 was purchased from Missouri S&T cDNA Resource Centre. […] S1P1/pcDNA3.1 was transfected into the CRE-bla CHO K1 (Invitrogen) cell line, and stable single cell clones were selected using standard techniques. S1P1 CRE-Bla CHOK1 Reporter Assay—Characterization of S1P1 Agonists […]
pEC50: −log10 of the molar value.
Measured pEC50, listed per entry.
EXPERIMENTAL_READOUT: pEC50

1. CC(C)Oc1ccc(-c2nc(-c3cccc4c3CC[C@H]4NS(=O)(=O)CC(=O)N(C)C)no2)cc1C#N [Compound 194] :: > 10.30
2. CC(C)Oc1ccc(-c2nc(-c3cccc4c3CC[C@@H]4NC(=O)N3CCC(CC(=O)O)CC3)no2)cc1C#N [Compound 229] :: 9.30 to 10.30
3. CC(C)Oc1ccc(-c2nc(-c3cccc4c3CC[C@H]4NS(=O)(=O)CCN3CC[C@H](O)C3)no2)cc1C#N [Compound 172] :: 8.30 to 9.30
4. CCOc1ccc(-c2nc(-c3cccc4c3CCC4NCCO)no2)cc1OCC (racemic) [Compound 253, reference compound] :: 8.30 to 9.30
5. CC(C)Oc1ccc(-c2nc(-c3cccc4c3CC[C@@H]4NS(=O)(=O)CC(=O)N(C)C)no2)cc1C#N [Compound 195] :: 9.30 to 10.30
6. CC(C)Oc1ccc(-c2nc(-c3cccc4c3CC[C@@H]4N[C@H](C)CO)no2)cc1C#N [Compound 55] :: 9.30 to 10.30
7. CC(C)Oc1ccc(-c2nc(-c3cccc4c3CC[C@H]4NCC(=O)NCCO)no2)cc1C#N [Compound 135] :: 9.30 to 10.30

* * *

# MEASUREMENT_TARGET: S1P1/EDG1 (Homo sapiens, UniProt P21453)
# EXPERIMENT: S1P1 CRE-bla CHOK1 reporter assay, inhibition of Forskolin induced cAMP
# Format: cell-based
# RUN_PARAMETERS: agonist activity range, S1P1 CRE-bla CHOK1, 2 μM Forskolin; read-out: S1P1 ACTIVITY
pEC50: −log10 of the molar value.
EXPERIMENTAL_READOUT: pEC50

1. CC(C)Oc1ccc(-c2nc(-c3cccc4c3CCC4N3CCC(O)CC3)no2)cc1C#N (racemic) :: 9.30 to 10.30
2. COC(=O)CC1CCN(C(=O)N[C@@H]2CCc3c(-c4noc(-c5ccc(OC(C)C)c(C#N)c5)n4)cccc32)CC1 :: 8.30 to 9.30
3. CC(C)Oc1ccc(-c2nc(-c3cccc4c3CC[C@@H]4NS(=O)(=O)CCN3CCOCC3)no2)cc1C#N :: 8.30 to 9.30
4. CC(C)Oc1ccc(-c2nc(-c3cccc4c3CCC4NS(C)(=O)=O)no2)cc1C#N (stereo in doubt) :: 9.30 to 10.30
5. CC(C)Oc1ccc(-c2nc(-c3cccc4c3CC[C@@H]4NC(=O)N3CC[C@H](N)C3)no2)cc1C#N :: 8.30 to 9.30
6. CC(C)Oc1ccc(-c2nc(-c3cccc4c3CC[C@H]4NC(=O)CN)no2)cc1C#N :: 9.30 to 10.30
7. CNS(=O)(=O)CCNC1CCc2c(-c3noc(-c4ccc(OC(C)C)c(C#N)c4)n3)cccc21 (racemic) :: 9.30 to 10.30

* * *

Measured pEC50, listed per entry.
# MEASUREMENT_TARGET: S1P1/EDG1 (Homo sapiens, UniProt P21453)
# EXPERIMENT: S1P1 CRE-bla CHOK1 reporter assay, inhibition of Forskolin induced cAMP
# Assay type: cell-based
# RUN_PARAMETERS: S1P1 CRE-bla CHOK1, with Forskolin; read-out: S1P1 agonist value (EC50)
pEC50: −log10 of the molar value.
EXPERIMENTAL_READOUT: pEC50

1. CC(C)Oc1ccc(-c2nc(-c3cccc4c3CC[C@H]4NC(=O)N3CC(O)C3)no2)cc1C#N [Compound 234] :: 10.00
2. CCOc1ccc(-c2nc(-c3cccc4c3CCC4NCCO)no2)cc1OCC (racemic) [Compound 253, reference compound] :: 8.54
3. CC(C)Oc1ccc(-c2nc(-c3cccc4c3CC[C@@H]4NS(=O)(=O)CCO)no2)cc1C#N [Compound 187] :: 10.00
4. CCOc1ccc(-c2nc(-c3cccc4c3CCC4O)no2)cc1OCC (racemic) [Compound 254, reference compound] :: 9.80

* * *

# EXPERIMENT: Evaluation of therapeutic index in rats: 5 or 14 day toxicology study, lung to body weight ratio
# Format: in vivo, Sprague-Dawley rat
# RUN_PARAMETERS: rats, oral, 5 or 14 consecutive days; interpolated from dose versus lung to body weight
Where a name gives a salt, the structure may show the parent alone.
EXPERIMENTAL_READOUT: Dose Resulting in 10% increase in lung weight (mg/kg)

1) CC(C)Oc1ccc(-c2nc(-c3cccc4c3CC[C@@H]4NCC(=O)N(C)C)no2)cc1C#N [Compound 91] :: 0.3
2) CC(C)Oc1ccc(-c2nc(-c3cccc4c3CC[C@H]4N)no2)cc1C#N [Compound 49, hydrochloride] :: 0.2
3) CC(C)Oc1ccc(-c2nc(-c3cccc4c3CC[C@H]4NCCO)no2)cc1C#N [Compound 85] :: 2.8
4) COCCS(=O)(=O)N[C@@H]1CCc2c(-c3noc(-c4ccc(OC(C)C)c(C#N)c4)n3)cccc21 [Compound 163] :: 2.1
5) CC(C)Oc1ccc(-c2nc(-c3cccc4c3CC[C@@H]4N)no2)cc1C#N [Compound 50] :: 2.0
6) CC(C)Oc1ccc(-c2nc(-c3cccc4c3CC[C@@H]4NCCO)no2)cc1C#N [Compound 86] :: 2.7
7) CC(C)Oc1ccc(-c2nc(-c3cccc4c3CC[C@H]4NCC(=O)N(C)C)no2)cc1C#N [Compound 90, hydrochloride] :: 5.5
8) COCCS(=O)(=O)N[C@H]1CCc2c(-c3noc(-c4ccc(OC(C)C)c(C#N)c4)n3)cccc21 [Compound 164] :: 5.0

* * *

# MEASUREMENT_TARGET: S1P5 (Homo sapiens)
# Construct: Tango fusion (own knowledge: protease cleavage site plus GAL4-VP16 transcription factor at the receptor's C-terminus); host or cells: U2OS (Tango -bla)
# Sequence (Q9H228 whole entry, the tested form may be a part): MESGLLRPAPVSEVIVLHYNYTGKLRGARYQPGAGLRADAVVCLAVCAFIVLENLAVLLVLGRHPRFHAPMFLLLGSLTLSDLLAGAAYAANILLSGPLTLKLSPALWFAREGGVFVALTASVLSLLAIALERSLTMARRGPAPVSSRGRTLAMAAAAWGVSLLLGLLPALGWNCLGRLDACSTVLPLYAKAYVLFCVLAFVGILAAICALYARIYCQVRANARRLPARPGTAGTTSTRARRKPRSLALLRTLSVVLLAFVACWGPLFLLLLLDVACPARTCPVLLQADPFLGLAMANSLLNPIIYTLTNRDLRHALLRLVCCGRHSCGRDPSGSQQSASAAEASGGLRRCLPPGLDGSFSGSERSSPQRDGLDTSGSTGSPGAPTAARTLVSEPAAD
# EXPERIMENT: Specificity over other S1P receptors: S1P5-bla TANGO U2OS assay
# Type: cell-based
# RUN_PARAMETERS: read-out: S1P5 agonist value (EC50)
pEC50: −log10 of the molar value. Counter-ions that a name gives are not always drawn.
EXPERIMENTAL_READOUT: pEC50

1) CC(C)Oc1ccc(-c2nc(-c3cccc4c3CC[C@H]4N)no2)cc1C#N [Compound 49, hydrochloride] :: 7.70
2) COCCS(=O)(=O)N[C@@H]1CCc2c(-c3noc(-c4ccc(OC(C)C)c(C#N)c4)n3)cccc21 :: 7.30
3) CC(C)Oc1ccc(-c2nc(-c3cccc4c3CC[C@@H]4NCC(=O)N(C)C)no2)cc1C#N :: 7.82
4) CC(C)Oc1ccc(-c2nc(-c3cccc4c3CC[C@H]4NC(=O)N3CC(O)C3)no2)cc1C#N :: 7.12
5) CCOc1ccc(-c2nc(-c3cccc4c3CCC4NCCO)no2)cc1OCC (racemic) [Compound 253, reference compound] :: 6.87
6) CC(C)Oc1ccc(-c2nc(-c3cccc4c3CC[C@@H]4NS(=O)(=O)CCO)no2)cc1C#N :: 7.24
7) CC(C)Oc1ccc(-c2nc(-c3cccc4c3CC[C@H]4NCC(=O)N(C)C)no2)cc1C#N [Compound 90, hydrochloride] :: 7.89

* * *

# MEASUREMENT_TARGET: S1P5 (Homo sapiens)
# Construct: Tango fusion (own knowledge: protease cleavage site plus GAL4-VP16 transcription factor at the receptor's C-terminus)
# EXPERIMENT: Specificity over other S1P receptors: S1P5-bla TANGO U2OS assay
# RUN_PARAMETERS: read-out: S1P5 agonist value (EC50)
pEC50: −log10 of the molar value.
EXPERIMENTAL_READOUT: pEC50

1. CC(C)Oc1ccc(-c2nc(-c3cccc4c3CC[C@@H]4NCCO)no2)cc1C#N [Compound 86] :: 7.26
2. CC(C)Oc1ccc(-c2nc(-c3cccc4c3CC[C@H]4NCCO)no2)cc1C#N [Compound 85] :: 7.82
3. CC(C)Oc1ccc(-c2nc(-c3cccc4c3CC[C@@H]4NC(=O)N3CC(O)C3)no2)cc1C#N [Compound 235] :: 7.40
4. CCOc1ccc(-c2nc(-c3cccc4c3CCC4O)no2)cc1OCC (racemic) [Compound 254, reference compound] :: 7.25
5. CC(C)Oc1ccc(-c2nc(-c3cccc4c3CC[C@@H]4N)no2)cc1C#N [Compound 50] :: 7.35
6. CC(C)Oc1ccc(-c2nc(-c3cccc4c3CC[C@H]4NS(=O)(=O)CCO)no2)cc1C#N [Compound 186] :: 7.49
7. COCCS(=O)(=O)N[C@H]1CCc2c(-c3noc(-c4ccc(OC(C)C)c(C#N)c4)n3)cccc21 [Compound 164] :: 6.76
